Values were extracted from the RNAGym collection of RNA variant scans (doi:10.1002/anie.201605470).

self-cleavage values, listed per item
B1: Osa-1-4 twister ribozyme (parent)
chain: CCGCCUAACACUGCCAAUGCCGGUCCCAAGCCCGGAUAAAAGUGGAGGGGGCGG

# Variants of: B1
# ASSAY_NOTES: self-cleavage, relative activity (ratio to wild type); higher = more cleavage; co-transcriptional
Returns: the value as a bare number; no unit string appended.

For orientation, consider the following solved cases.
Ask: Return reported self-cleavage. Input variant: A28C C11A
Reply: 0.71

Ask: Return reported self-cleavage. Input variant: A40G U18C
Reply: 0.72

Ask: Return reported self-cleavage. Input variant: A28G G53C
Reply: 0.06

Please turn your attention to the following entry.
Ask: Return reported self-cleavage. Input variant: G22C G23A
Reply: 0.06
